The origin of these recorded values is BigSolDB 2.1.

run.conditions: in methanol, 293.15 K
property: solubility (mole fraction)
Respond numerically, and do not add a unit to the figure.

In one line, give reported solubility (mole fraction) of the entry CCS(=O)(=O)CCn1c([N+](=O)[O-])cnc1C .
0.00197

* * *

run.conditions: in 2-methoxyethanol, 308.15 K
property: solubility (mole fraction)
Respond numerically, and do not add a unit to the figure.

In one line, give reported solubility (mole fraction) of the entry CCS(=O)(=O)CCn1c([N+](=O)[O-])cnc1C .
0.0257

* * *

run.conditions: in acetone, 283.15 K
property: solubility (mole fraction)

In one line, give reported solubility (mole fraction) of the entry CCS(=O)(=O)CCn1c([N+](=O)[O-])cnc1C .
0.011

* * *

run.conditions: in ethyl acetate, 278.15 K
property: solubility (mole fraction)
Respond numerically, and do not add a unit to the figure.

In one line, give reported solubility (mole fraction) of the entry CCS(=O)(=O)CCn1c([N+](=O)[O-])cnc1C .
0.00334

* * *

run.conditions: in DMF, 288.15 K
property: solubility (mole fraction)
Respond numerically, and do not add a unit to the figure.

In one line, give reported solubility (mole fraction) of the entry CCS(=O)(=O)CCn1c([N+](=O)[O-])cnc1C .
0.06

* * *

run.conditions: in ethanol, 283.15 K
property: solubility (mole fraction)
Respond numerically, and do not add a unit to the figure.

In one line, give reported solubility (mole fraction) of the entry CCS(=O)(=O)CCn1c([N+](=O)[O-])cnc1C .
0.000375

* * *

run.conditions: in 2-ethoxyethanol, 318.15 K
property: solubility (mole fraction)
Respond numerically, and do not add a unit to the figure.

In one line, give reported solubility (mole fraction) of the entry CCS(=O)(=O)CCn1c([N+](=O)[O-])cnc1C .
0.0181

* * *

run.conditions: in 2-butoxyethanol, 318.15 K
property: solubility (mole fraction)
Respond numerically, and do not add a unit to the figure.

In one line, give reported solubility (mole fraction) of the entry CCS(=O)(=O)CCn1c([N+](=O)[O-])cnc1C .
0.0106

* * *

run.conditions: in 2-methoxyethanol, 283.15 K
property: solubility (mole fraction)
Respond numerically, and do not add a unit to the figure.

In one line, give reported solubility (mole fraction) of the entry CCS(=O)(=O)CCn1c([N+](=O)[O-])cnc1C .
0.0102

* * *

run.conditions: in ethyl acetate, 303.15 K
property: solubility (mole fraction)

In one line, give reported solubility (mole fraction) of the entry CCS(=O)(=O)CCn1c([N+](=O)[O-])cnc1C .
0.00825

* * *

run.conditions: in ethanol, 308.15 K
property: solubility (mole fraction)
Respond numerically, and do not add a unit to the figure.

In one line, give reported solubility (mole fraction) of the entry CCS(=O)(=O)CCn1c([N+](=O)[O-])cnc1C .
0.0016

* * *

run.conditions: in 2-butoxyethanol, 288.15 K
property: solubility (mole fraction)
Respond numerically, and do not add a unit to the figure.

In one line, give reported solubility (mole fraction) of the entry CCS(=O)(=O)CCn1c([N+](=O)[O-])cnc1C .
0.00276

* * *

run.conditions: in ethanol, 303.15 K
property: solubility (mole fraction)
Respond numerically, and do not add a unit to the figure.

In one line, give reported solubility (mole fraction) of the entry CCS(=O)(=O)CCn1c([N+](=O)[O-])cnc1C .
0.0012

* * *

run.conditions: in 2-ethoxyethanol, 313.15 K
property: solubility (mole fraction)

In one line, give reported solubility (mole fraction) of the entry CCS(=O)(=O)CCn1c([N+](=O)[O-])cnc1C .
0.0147

* * *

run.conditions: in 2-propoxyethanol, 283.15 K
property: solubility (mole fraction)

In one line, give reported solubility (mole fraction) of the entry CCS(=O)(=O)CCn1c([N+](=O)[O-])cnc1C .
0.00261

* * *

run.conditions: in 2-methoxyethanol, 298.15 K
property: solubility (mole fraction)
Respond numerically, and do not add a unit to the figure.

In one line, give reported solubility (mole fraction) of the entry CCS(=O)(=O)CCn1c([N+](=O)[O-])cnc1C .
0.0175

* * *

run.conditions: in n-propyl acetate, 293.15 K
property: solubility (mole fraction)
Respond numerically, and do not add a unit to the figure.

In one line, give reported solubility (mole fraction) of the entry CCS(=O)(=O)CCn1c([N+](=O)[O-])cnc1C .
0.00456

* * *

run.conditions: in 2-methoxyethanol, 313.15 K
property: solubility (mole fraction)
Respond numerically, and do not add a unit to the figure.

In one line, give reported solubility (mole fraction) of the entry CCS(=O)(=O)CCn1c([N+](=O)[O-])cnc1C .
0.0314

* * *

run.conditions: in methyl acetate, 298.15 K
property: solubility (mole fraction)

In one line, give reported solubility (mole fraction) of the entry CCS(=O)(=O)CCn1c([N+](=O)[O-])cnc1C .
0.0114

* * *

run.conditions: in DMAc, 318.15 K
property: solubility (mole fraction)
Respond numerically, and do not add a unit to the figure.

In one line, give reported solubility (mole fraction) of the entry CCS(=O)(=O)CCn1c([N+](=O)[O-])cnc1C .
0.136

* * *

run.conditions: in DMF, 298.15 K
property: solubility (mole fraction)
Respond numerically, and do not add a unit to the figure.

In one line, give reported solubility (mole fraction) of the entry CCS(=O)(=O)CCn1c([N+](=O)[O-])cnc1C .
0.0787

* * *

run.conditions: in 2-propoxyethanol, 298.15 K
property: solubility (mole fraction)
Respond numerically, and do not add a unit to the figure.

In one line, give reported solubility (mole fraction) of the entry CCS(=O)(=O)CCn1c([N+](=O)[O-])cnc1C .
0.00513

* * *

run.conditions: in NMP, 303.15 K
property: solubility (mole fraction)
Respond numerically, and do not add a unit to the figure.

In one line, give reported solubility (mole fraction) of the entry CCS(=O)(=O)CCn1c([N+](=O)[O-])cnc1C .
0.122

* * *

run.conditions: in n-butyl acetate, 308.15 K
property: solubility (mole fraction)
Respond numerically, and do not add a unit to the figure.

In one line, give reported solubility (mole fraction) of the entry CCS(=O)(=O)CCn1c([N+](=O)[O-])cnc1C .
0.00617

* * *

run.conditions: in 2-ethoxyethanol, 278.15 K
property: solubility (mole fraction)
Respond numerically, and do not add a unit to the figure.

In one line, give reported solubility (mole fraction) of the entry CCS(=O)(=O)CCn1c([N+](=O)[O-])cnc1C .
0.00356

* * *

run.conditions: in NMP, 283.15 K
property: solubility (mole fraction)

In one line, give reported solubility (mole fraction) of the entry CCS(=O)(=O)CCn1c([N+](=O)[O-])cnc1C .
0.0804

* * *

run.conditions: in ethanol, 278.15 K
property: solubility (mole fraction)

In one line, give reported solubility (mole fraction) of the entry CCS(=O)(=O)CCn1c([N+](=O)[O-])cnc1C .
0.000263

* * *

run.conditions: in n-propyl acetate, 323.15 K
property: solubility (mole fraction)
Respond numerically, and do not add a unit to the figure.

In one line, give reported solubility (mole fraction) of the entry CCS(=O)(=O)CCn1c([N+](=O)[O-])cnc1C .
0.0135

* * *

run.conditions: in methyl acetate, 288.15 K
property: solubility (mole fraction)
Respond numerically, and do not add a unit to the figure.

In one line, give reported solubility (mole fraction) of the entry CCS(=O)(=O)CCn1c([N+](=O)[O-])cnc1C .
0.00791

* * *

run.conditions: in DMF, 303.15 K
property: solubility (mole fraction)
Respond numerically, and do not add a unit to the figure.

In one line, give reported solubility (mole fraction) of the entry CCS(=O)(=O)CCn1c([N+](=O)[O-])cnc1C .
0.0905

* * *

run.conditions: in NMP, 318.15 K
property: solubility (mole fraction)
Respond numerically, and do not add a unit to the figure.

In one line, give reported solubility (mole fraction) of the entry CCS(=O)(=O)CCn1c([N+](=O)[O-])cnc1C .
0.167

* * *

run.conditions: in NMP, 313.15 K
property: solubility (mole fraction)
Respond numerically, and do not add a unit to the figure.

In one line, give reported solubility (mole fraction) of the entry CCS(=O)(=O)CCn1c([N+](=O)[O-])cnc1C .
0.15

* * *

run.conditions: in ethyl acetate, 318.15 K
property: solubility (mole fraction)
Respond numerically, and do not add a unit to the figure.

In one line, give reported solubility (mole fraction) of the entry CCS(=O)(=O)CCn1c([N+](=O)[O-])cnc1C .
0.0141

* * *

run.conditions: in methyl acetate, 318.15 K
property: solubility (mole fraction)
Respond numerically, and do not add a unit to the figure.

In one line, give reported solubility (mole fraction) of the entry CCS(=O)(=O)CCn1c([N+](=O)[O-])cnc1C .
0.0223

* * *

run.conditions: in ethanol, 288.15 K
property: solubility (mole fraction)
Respond numerically, and do not add a unit to the figure.

In one line, give reported solubility (mole fraction) of the entry CCS(=O)(=O)CCn1c([N+](=O)[O-])cnc1C .
0.000479
